Numbers sourced from ChEMBL document CHEMBL1201862.

Some compounds, each annotated with its measured GI50.
system: Malme-3M; test: NCI tumour cell line growth inhibition, 48 h
Calls of active or inactive are those of the source. Cut-off read from the data, not from the text of the source: active = GI50 up to about 1.1 µM and inactive = higher.

[
  {
    "COMPOUND": "CC(C)(C)[C@H]1CO[C@]2(C)[C@@H]3C[C@@H]3C(=O)N12",
    "GI50": "> 100 µM (inactive)"
  },
  {
    "COMPOUND": "CC(=O)OCC1OC(n2c3c(cc(C#N)c2=S)CCCC3)C(OC(C)=O)C(OC(C)=O)C1OC(C)=O (stereo not drawn)",
    "GI50": "> 100 µM (inactive)"
  },
  {
    "COMPOUND": "O=[N+]([O-])C(=C/C1CCCCC1)/C(=C\\C1CCCCC1)[N+](=O)[O-]",
    "GI50": "2.2 µM (inactive)"
  },
  {
    "COMPOUND": "COc1cc2c[n+](C)c3c4cc5c(cc4ccc3c2cc1OC)OCO5 [NITIDINE CHLORIDE]",
    "GI50": "14.5 µM (inactive)"
  },
  {
    "COMPOUND": "Cc1nc(N)c(N2CCN(Cc3ccccc3)CC2)c(O)n1",
    "GI50": "> 100 µM (inactive)"
  },
  {
    "COMPOUND": "C/C=C1\\CN2CCc3c([nH]c4ccccc34)C2CC1CCO (stereo not drawn)",
    "GI50": "> 100 µM (inactive)"
  },
  {
    "COMPOUND": "COc1ccc(C2CCc3cc4c(cc3/C2=N/OC(C)=O)OCO4)cc1OC (stereo not drawn)",
    "GI50": "20.1 µM (inactive)"
  },
  {
    "COMPOUND": "Cc1cccc2cc3c(ccc4ccccc43)c[n+]12",
    "GI50": "1.77 µM (inactive)"
  },
  {
    "COMPOUND": "O=c1c(C(c2cnc3ccccc3c2)c2c(O)oc3ccccc3c2=O)c(O)oc2ccccc12",
    "GI50": "35.2 µM (inactive)"
  },
  {
    "COMPOUND": "COC(=O)/C(=C\\Nc1cccc(C)n1)S(=O)(=O)c1ccc(C)cc1",
    "GI50": "> 100 µM (inactive)"
  },
  {
    "COMPOUND": "Oc1ccc2ccccc2c1/C=C/c1ccc2c(Br)cc(Br)c(O)c2n1",
    "GI50": "12.7 µM (inactive)"
  },
  {
    "COMPOUND": "COC(=O)c1c(C#C[Si](C)(C)C)c(C#C[Si](C)(C)C)c(C#C[Si](C)(C)C)c(C#C[Si](C)(C)C)c1C(=O)OC",
    "GI50": "> 100 µM (inactive)"
  },
  {
    "COMPOUND": "CN(C)c1ccc(/C=c2\\sc3nc4ccccc4n3c2=O)cc1",
    "GI50": "> 100 µM (inactive)"
  }
]

* * *

Some compounds, each annotated with its measured GI50.
tested on: MDA-MB-231; experiment: NCI tumour cell line growth inhibition, 48 h
Active and inactive are the calls of the source. No stated cut-off is given here; in the data, active = GI50 up to about 1.1 µM and inactive = higher.
ENDPOINT LABEL: GI50

[
  {
    "COMPOUND": "C=CCC(CNC(=O)OCc1ccccc1)O[Si](C)(C)C(C)(C)C (stereo not drawn)",
    "TESTED ON": "MDA-MB-231",
    "MEASURED RESULT": "17.3 µM (inactive)"
  },
  {
    "COMPOUND": "O=c1[nH]c(=O)c2c([nH]1)[nH]c1ccc(Br)cc12",
    "TESTED ON": "MDA-MB-231",
    "MEASURED RESULT": "93.5 µM (inactive)"
  },
  {
    "COMPOUND": "COc1cccc(/N=N/C(=N/NC(=O)c2ccc(C)cc2)c2ccc(N(CCC#N)CCC#N)cc2OC)c1",
    "TESTED ON": "MDA-MB-231",
    "MEASURED RESULT": "> 100 µM (inactive)"
  },
  {
    "COMPOUND": "O=C(CC(C(=O)c1ccsc1)c1ccccc1)c1cccs1 (stereo not drawn)",
    "TESTED ON": "MDA-MB-231",
    "MEASURED RESULT": "22.2 µM (inactive)"
  },
  {
    "COMPOUND": "Cc1nc(C)c(Cc2ccccc2)o1",
    "TESTED ON": "MDA-MB-231",
    "MEASURED RESULT": "> 100 µM (inactive)"
  },
  {
    "COMPOUND": "O=C1C=CC(=O)c2c(O)ccc(O)c21",
    "TESTED ON": "MDA-MB-231",
    "MEASURED RESULT": "2.22 µM (inactive)"
  },
  {
    "COMPOUND": "N=C1N(/N=C/c2ccccn2)/C(=N\\c2ccccc2)C(=S)N1c1ccccc1",
    "TESTED ON": "MDA-MB-231",
    "MEASURED RESULT": "6.7 µM (inactive)"
  },
  {
    "COMPOUND": "CN(c1ccccc1Cl)S(=O)(=O)c1ccccc1[N+](=O)[O-]",
    "TESTED ON": "MDA-MB-231",
    "MEASURED RESULT": "37.2 µM (inactive)"
  }
]

* * *

system: UO-31; assay: NCI tumour cell line growth inhibition, 48 h
Activity calls are given as the source filed them. Cut-off read from the data, not from the text of the source: active = GI50 up to about 1.1 µM and inactive = higher.
Some compounds, each annotated with its measured GI50.

[
  {
    "COMPOUND": "CC(C)C1=Cc2ccc3c(c2C(=O)C1=O)CCCC3(C)C",
    "GI50": "6.64 µM (inactive)"
  },
  {
    "COMPOUND": "Cc1cc(S(=O)(=O)Nc2nc(N)n(-c3ccccc3)n2)c(S)cc1Cl",
    "GI50": "> 100 µM (inactive)"
  },
  {
    "COMPOUND": "N=C1N(/N=C/c2ccccn2)/C(=N\\c2ccccc2)C(=S)N1c1ccccc1",
    "GI50": "4.37 µM (inactive)"
  },
  {
    "COMPOUND": "Cc1nc2ccc(NC3OCC(O)C(O)C3O)cc2c(=O)n1-c1ccccc1 (stereo unspecified)",
    "GI50": "> 100 µM (inactive)"
  },
  {
    "COMPOUND": "NC(=O)Nc1c([N+](=O)[O-])cc(C(F)(F)F)cc1[N+](=O)[O-]",
    "GI50": "> 100 µM (inactive)"
  },
  {
    "COMPOUND": "N#CC12Cc3cc4c(cc3-c3cccc(c31)CCN2C(=O)c1ccccc1)OCO4 (stereo unspecified)",
    "GI50": "> 100 µM (inactive)"
  }
]

* * *

test system: KM12; test: NCI tumour cell line growth inhibition, 48 h
The source made the active and inactive calls. Cut-off read from the data, not from the text of the source: active = GI50 up to about 1.1 µM and inactive = higher.

[
  {
    "COMPOUND": "N=C(N)NS(=O)(=O)c1ccc(NC(=O)c2cccc3c(N)c4ccccc4nc23)cc1",
    "TESTED ON": "KM12",
    "GI50": "8.57 µM (inactive)"
  },
  {
    "COMPOUND": "C/C=C1\\CN2CCc3c([nH]c4ccccc34)C2CC1CCO (stereo not drawn)",
    "TESTED ON": "KM12",
    "GI50": "> 100 µM (inactive)"
  },
  {
    "COMPOUND": "O=C(O)c1ccc2[nH]c(=O)oc2c1",
    "TESTED ON": "KM12",
    "GI50": "> 100 µM (inactive)"
  },
  {
    "COMPOUND": "O=c1[nH]/c(=C/c2ccc(OCc3ccccc3)cn2)c(=O)[nH]/c1=C/c1ccc([N+](=O)[O-])cc1",
    "TESTED ON": "KM12",
    "GI50": "> 100 µM (inactive)"
  },
  {
    "COMPOUND": "O=C1c2ccccc2C2(O)Nc3c(ccc4ccccc34)C12O (stereo not drawn)",
    "TESTED ON": "KM12",
    "GI50": "87.1 µM (inactive)"
  },
  {
    "COMPOUND": "CC[C@H](C)C1=C(O)[N@+]2([O-])Oc3ccc(-c4c(O)c(O)c(-c5ccc(OC(C)=O)cc5)c(OC(C)=O)c4OC(C)=O)cc3O[C@]2([C@@H](C)CC)C(=O)N1O",
    "TESTED ON": "KM12",
    "GI50": "29.9 µM (inactive)"
  },
  {
    "COMPOUND": "COC(=O)C1=NN2c3ccccc3CN([C@@H](C)c3ccccc3)C(=O)[C@@H]2C1",
    "TESTED ON": "KM12",
    "GI50": "21.2 µM (inactive)"
  },
  {
    "COMPOUND": "CNC(=S)N/N=C1\\CC(c2ccccc2)Oc2ccccc21 (stereo not drawn)",
    "TESTED ON": "KM12",
    "GI50": "> 100 µM (inactive)"
  },
  {
    "COMPOUND": "CCCCNC(=S)N/C=C1\\C(=O)Oc2ccccc2C1=O",
    "TESTED ON": "KM12",
    "GI50": "> 100 µM (inactive)"
  },
  {
    "COMPOUND": "O=C(/C=C/c1ccc(Cl)cc1)c1ccc(Cl)s1",
    "TESTED ON": "KM12",
    "GI50": "29.1 µM (inactive)"
  },
  {
    "COMPOUND": "C=CCC(CNC(=O)OCc1ccccc1)O[Si](C)(C)C(C)(C)C (stereo not drawn)",
    "TESTED ON": "KM12",
    "GI50": "34 µM (inactive)"
  },
  {
    "COMPOUND": "C/C=C/C1OC(O)(C(C)C(O)[C@H](C)C2OC(=O)/C(OC)=C/C(C)=C/[C@@H](C)[C@@H](O)[C@@H](C)C(O)C(C)C/C(C)=C/C=C/C2OC)C[C@@H](OC2CC(O)C(OC(N)=O)C(C)O2)C1C (stereo partly drawn)",
    "TESTED ON": "KM12",
    "GI50": "< 0.01 µM (active)"
  },
  {
    "COMPOUND": "O=CN/C=C\\c1cc(O)ccc1O",
    "TESTED ON": "KM12",
    "GI50": "> 22.5 µM (inactive)"
  },
  {
    "COMPOUND": "Cc1nc(C)c(N2CCN(CN)CC2)c(O)n1",
    "TESTED ON": "KM12",
    "GI50": "> 100 µM (inactive)"
  },
  {
    "COMPOUND": "O=C(O)C1OC1C(=O)O (stereo not drawn)",
    "TESTED ON": "KM12",
    "GI50": "> 100 µM (inactive)"
  },
  {
    "COMPOUND": "CC1(C)OCN(c2ccc(Cl)cc2)Cn2c1nc1ccccc12",
    "TESTED ON": "KM12",
    "GI50": "1.61 µM (inactive)"
  },
  {
    "COMPOUND": "COc1cc(/C=C/C(=O)O)ccc1C(=O)O/C=C/c1ccccc1",
    "TESTED ON": "KM12",
    "GI50": "> 100 µM (inactive)"
  },
  {
    "COMPOUND": "N#CCCN(c1ccc(/C=N/c2nc(-c3ccccc3)cs2)cc1)S(=O)(=O)c1ccccc1",
    "TESTED ON": "KM12",
    "GI50": "> 100 µM (inactive)"
  },
  {
    "COMPOUND": "CCC(C#N)N(Cc1ccc(CN(C(=O)c2ccccc2)C(C#N)CC)cc1)C(=O)c1ccccc1 (stereo not drawn)",
    "TESTED ON": "KM12",
    "GI50": "21.7 µM (inactive)"
  },
  {
    "COMPOUND": "Cc1ccccc1NC(=O)CC(=O)NNCC(=O)Nc1nnc(-c2ccccc2)s1",
    "TESTED ON": "KM12",
    "GI50": "> 100 µM (inactive)"
  },
  {
    "COMPOUND": "COCCCN(Cc1cc(OC)c(OC)c(OC)c1)C(=S)Nc1cccc(Cl)c1",
    "TESTED ON": "KM12",
    "GI50": "23.1 µM (inactive)"
  },
  {
    "COMPOUND": "COc1c(C(=O)NCCN(CCNC(=O)c2cccc(-c3cccc(C(=O)N(C)C)c3OC)c2OC)CCNC(=O)c2cccc(-c3cccc(C(=O)N(C)C)c3OC)c2OC)cccc1-c1cccc(C(=O)N(C)C)c1OC",
    "TESTED ON": "KM12",
    "GI50": "17.3 µM (inactive)"
  },
  {
    "COMPOUND": "CC(C)C1CCC(=O)CC1CCCCC1CC(=O)CC1O[Si](C)(C)C(C)(C)C (stereo not drawn)",
    "TESTED ON": "KM12",
    "GI50": "2.76 µM (inactive)"
  }
]
